- tested.system: Microsomal triglyceride transfer protein (MTP) from human small intestine microsome (Homo sapiens, UniProt P55157)
- Construct: Human small intestine microsome was dialyzed against 10 mM phosphate buffer; tissue Tissue Transforming Technologies, Inc; host or cells: human small intestine microsome
- Sequence (P55157 19-894): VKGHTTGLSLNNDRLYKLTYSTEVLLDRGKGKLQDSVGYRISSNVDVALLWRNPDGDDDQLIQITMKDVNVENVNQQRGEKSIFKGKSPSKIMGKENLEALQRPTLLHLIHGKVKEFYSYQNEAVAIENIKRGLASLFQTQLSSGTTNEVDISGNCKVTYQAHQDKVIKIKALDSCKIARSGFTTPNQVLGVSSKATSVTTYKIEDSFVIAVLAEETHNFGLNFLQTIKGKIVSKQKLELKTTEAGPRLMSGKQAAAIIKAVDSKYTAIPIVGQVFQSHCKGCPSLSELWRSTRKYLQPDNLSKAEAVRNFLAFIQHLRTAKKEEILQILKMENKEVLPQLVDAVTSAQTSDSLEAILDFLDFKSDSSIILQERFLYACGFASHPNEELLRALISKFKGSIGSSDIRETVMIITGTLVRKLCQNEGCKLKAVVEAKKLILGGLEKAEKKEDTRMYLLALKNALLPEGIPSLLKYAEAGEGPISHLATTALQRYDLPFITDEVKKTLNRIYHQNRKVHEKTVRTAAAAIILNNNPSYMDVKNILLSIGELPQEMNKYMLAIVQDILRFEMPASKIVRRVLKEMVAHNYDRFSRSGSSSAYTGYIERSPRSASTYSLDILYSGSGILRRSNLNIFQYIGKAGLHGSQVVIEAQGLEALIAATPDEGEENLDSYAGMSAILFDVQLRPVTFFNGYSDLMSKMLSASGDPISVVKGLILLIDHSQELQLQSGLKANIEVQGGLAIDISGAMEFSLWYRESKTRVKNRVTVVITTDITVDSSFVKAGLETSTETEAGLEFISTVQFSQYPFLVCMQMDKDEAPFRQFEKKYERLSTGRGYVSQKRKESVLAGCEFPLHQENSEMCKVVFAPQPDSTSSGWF
- Sequence (P07237 18-508 partner): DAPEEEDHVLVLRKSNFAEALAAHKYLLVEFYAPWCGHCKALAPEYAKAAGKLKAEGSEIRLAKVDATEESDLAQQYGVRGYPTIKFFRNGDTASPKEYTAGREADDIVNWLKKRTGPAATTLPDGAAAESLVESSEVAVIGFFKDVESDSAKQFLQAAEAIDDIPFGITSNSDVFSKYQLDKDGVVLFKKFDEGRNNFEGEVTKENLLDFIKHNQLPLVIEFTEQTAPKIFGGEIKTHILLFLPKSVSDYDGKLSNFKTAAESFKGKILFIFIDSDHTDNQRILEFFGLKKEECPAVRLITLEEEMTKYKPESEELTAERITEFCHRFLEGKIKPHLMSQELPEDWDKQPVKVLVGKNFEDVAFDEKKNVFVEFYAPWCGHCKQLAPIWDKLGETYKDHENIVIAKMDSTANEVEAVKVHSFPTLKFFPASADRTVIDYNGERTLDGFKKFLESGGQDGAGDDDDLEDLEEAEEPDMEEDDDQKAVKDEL
- experimental.details: Inhibition test of interliposomal triglyceride (TG) transfer activity by MTP
- Type: biochemical
- condition.description: purified MTP from human small intestine microsome, 37° C., 1.5 hours
- Experimental: Microsomal triglyceride transfer protein (MTP) from human small intestine microsome (manufactured by Tissue Transforming Technologies, Inc.) was purified in such a way described below. Human small intestine microsome was dialyzed against 10 mM phosphate buffer (300 mL, pH 6.8) twice for about 2 hours and once for further not less than 12 hours, at about 4° C. After dialysis, the mixture was centrifuged at 4° C. and 15,000×g for 5 minutes and then the supernatant was recovered. […]
endpoint: IC50

Illustrative cases are given below, each with its answer.
{"query.smiles": "COC(=O)c1ccc(OC(=O)CCCc2ccc(NC(=O)c3ccccc3-c3ccc(C(F)(F)F)cc3)c(C(=O)N(C)C)c2)c(C(=O)OC)c1", "result": "< 10 nM"}
{"query.smiles": "COC(=O)c1cc(C)c(OC(=O)CCCc2ccc(NC(=O)c3ccccc3-c3ccc(C(F)(F)F)cc3)c(C(=O)N(C)C)c2)c(Cl)c1", "result": "< 10 nM"}
{"query.smiles": "CC(C)OC(=O)c1ccc(OC(=O)CCCc2ccc(NC(=O)c3ccncc3-c3ccc(C(F)(F)F)cc3)c(C(=O)N(C)C)c2)cc1", "result": "< 10 nM"}
{"query.smiles": "COC(=O)c1cc(Br)c(OC(=O)CCCc2ccc(NC(=O)c3ccc(C)nc3-c3ccc(C(F)(F)F)cc3)c(C(=O)N(C)C)c2)c(OC)c1", "result": "< 10 nM"}
{"query.smiles": "Cc1ccc(C(=O)Nc2ccc(CCCC(=O)Oc3ccc(C(=O)OCc4ccccc4)cc3)cc2C(=O)N(C)C)c(-c2ccc(C(F)(F)F)cc2)n1", "result": "< 10 nM"}

Consider the molecule CN(C)C(=O)c1cc(CCCC(=O)Oc2ccc(C(=O)OCc3ccsc3)cc2)ccc1NC(=O)c1ccccc1-c1ccc(C(F)(F)F)cc1 and give its recorded IC50.
< 10 nM

Consider the molecule COC(=O)c1cc(C(=O)OC(C)C)cc(C)c1OC(=O)CCCc1ccc(NC(=O)c2ccc(C)nc2-c2ccc(C(F)(F)F)cc2)c(C(=O)N(C)C)c1 and give its recorded IC50.
< 10 nM

Consider the molecule CN(C)C(=O)c1cc(CC(=O)Oc2ccccc2)ccc1NC(=O)c1ccccc1-c1ccc(C(F)(F)F)cc1 and give its recorded IC50.
100 to 1000 nM

Consider the molecule COC(=O)c1ccc(OC(=O)CCCc2ccc(NC(=O)c3ccccc3-c3ccc(C(F)(F)F)cc3)c(C(=O)N3CCCC3)c2)cc1 and give its recorded IC50.
< 10 nM

Consider the molecule COC(=O)c1ccc(OC(=O)CCCc2ccc(NC(=O)c3ccccc3-c3ccc(C(F)(F)F)cc3)c(C(=O)N(C)C)c2)c(OC)c1 and give its recorded IC50.
< 10 nM
